Provenance of the data: ChEMBL document CHEMBL3853330

Known IC50 of a selection of compounds
system-name: C-X-C chemokine receptor type 4 (Homo sapiens)
Sequence (P61073 whole entry): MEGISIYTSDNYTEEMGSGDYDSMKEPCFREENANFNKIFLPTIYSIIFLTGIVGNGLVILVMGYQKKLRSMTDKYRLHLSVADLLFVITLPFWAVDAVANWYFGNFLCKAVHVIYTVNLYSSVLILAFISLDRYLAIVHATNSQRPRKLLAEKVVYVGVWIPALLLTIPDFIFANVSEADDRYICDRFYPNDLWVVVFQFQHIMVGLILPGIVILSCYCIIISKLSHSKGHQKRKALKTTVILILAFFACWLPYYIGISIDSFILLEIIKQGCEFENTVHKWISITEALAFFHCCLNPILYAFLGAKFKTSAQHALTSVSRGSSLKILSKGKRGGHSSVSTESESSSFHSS
method-summary: Inhibition of PE-conjugated-12G5 anti-CXCR4 antibody binding to CXCR4 in human CEM-CCRF cells preincubated for 30 mins followed by antibody addition by FACS Canto II cytofluorometric analysis
Format: cell-based
Positions of bridges follow the written chain, without caps; N, C: chain ends. Residues, ends and D or L forms follow the SMILES beside them.

# compound, system-name, readout-qualifier, IC50 / µM
measured = [
    ("CC(=O)N[C@@H](CCCNC(=N)N)C(=O)N[C@@H](C)C(=O)N[C@@H]1CSSC[C@@H](C(=O)O)NC(=O)[C@H](C)NC(=O)[C@H](Cc2ccccc2)NC(=O)[C@H](CCCNC(=N)N)NC1=O", "C-X-C chemokine receptor type 4 (Homo sapiens)", ">", 10),
    ("CC(=O)N[C@@H](CCCNC(=N)N)C(=O)N[C@@H](C)C(=O)N[C@@H]1CSSC[C@@H](C(=O)O)NC(=O)[C@H](Cc2ccccc2)NC(=O)[C@H](Cc2ccccc2)NC(=O)[C@H](CCCNC(=N)N)NC1=O", "C-X-C chemokine receptor type 4 (Homo sapiens)", "=", 0.053),
    ("CC(=O)N[C@@H](CCCNC(=N)N)C(=O)N[C@@H](C)C(=O)N[C@@H]1CSSC[C@@H](C(=O)O)NC(=O)[C@H](Cc2ccccc2)NC(=O)[C@H](Cc2ccccc2)NC(=O)[C@H](C)NC1=O", "C-X-C chemokine receptor type 4 (Homo sapiens)", ">", 10),
    ("CC(=O)N[C@@H](CCCNC(=N)N)C(=O)N[C@@H](C)C(=O)N[C@H]1CSSC[C@H](C(=O)O)NC(=O)[C@H](Cc2ccccc2)NC(=O)[C@H](Cc2ccccc2)NC(=O)[C@H](CCCNC(=N)N)NC1=O", "C-X-C chemokine receptor type 4 (Homo sapiens)", "=", 5.9),
    ("CC(=O)N[C@@H](CCCNC(=N)N)C(=O)N[C@@H](C)C(=O)N[C@H]1CSSC[C@@H](C(N)=O)NC(=O)[C@H](Cc2ccccc2)NC(=O)[C@H](Cc2ccccc2)NC(=O)[C@H](CCCNC(=N)N)NC1=O (Ac-RACRFFC-NH2; disulfide 3-7)", "C-X-C chemokine receptor type 4 (Homo sapiens)", "=", 1.23),
]

----------
method-summary: Drug metabolism in human plasma after 30 mins by ESI-RP-HPLC analysis
Format: ADME, cell-free
condition-label: read-out: Drug metabolism
Positions of bridges follow the written chain, without caps; N, C: chain ends. Residues, ends and D or L forms follow the SMILES beside them.

# compound, metabolised at 0.5 h, %
measured = [
    ("C[C@H](NC(=O)[C@@H](N)CCCNC(=N)N)C(=O)N[C@H]1CSSC[C@@H](C(=O)O)NC(=O)[C@H](Cc2ccccc2)NC(=O)[C@H](Cc2ccccc2)NC(=O)[C@H](CCCNC(=N)N)NC1=O (H-RACRFFC-OH; disulfide 3-7)", 30),
]

----------
method-summary: Metabolic stability in human plasma assessed as compound degradation after 60 mins by ESI-RP-HPLC analysis
Format: ADME, cell-free
condition-label: read-out: Drug degradation
Positions of bridges follow the written chain, without caps; N, C: chain ends. Residues, ends and D or L forms follow the SMILES beside them.

# compound, metabolised at 1 h [%]
records = [
    ("C[C@H](NC(=O)[C@@H](N)CCCNC(=N)N)C(=O)N[C@H]1CSSC[C@@H](C(=O)O)NC(=O)[C@H](Cc2ccccc2)NC(=O)[C@H](Cc2ccccc2)NC(=O)[C@H](CCCNC(=N)N)NC1=O (H-RACRFFC-OH; disulfide 3-7)", 50),
]
